- assay system: vesicular monoamine transporter 2 (VMAT2) (Homo sapiens, UniProt Q05940)
- Construct: expressed in transfected cells
- Sequence (Q05940 whole entry, species assumed): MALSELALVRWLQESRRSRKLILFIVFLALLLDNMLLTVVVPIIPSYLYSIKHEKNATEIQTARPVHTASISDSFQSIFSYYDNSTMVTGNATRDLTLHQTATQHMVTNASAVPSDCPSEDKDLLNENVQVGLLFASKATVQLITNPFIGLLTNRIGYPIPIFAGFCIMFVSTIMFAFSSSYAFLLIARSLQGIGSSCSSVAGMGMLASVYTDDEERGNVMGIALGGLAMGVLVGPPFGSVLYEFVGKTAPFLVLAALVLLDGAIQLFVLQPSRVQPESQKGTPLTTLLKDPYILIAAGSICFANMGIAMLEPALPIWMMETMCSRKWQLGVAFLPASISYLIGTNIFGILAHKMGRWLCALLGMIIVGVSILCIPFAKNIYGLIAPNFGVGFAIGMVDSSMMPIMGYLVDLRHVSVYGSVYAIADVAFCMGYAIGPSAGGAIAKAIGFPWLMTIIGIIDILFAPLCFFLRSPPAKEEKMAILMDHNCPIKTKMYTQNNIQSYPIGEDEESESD
- test method notes: Fluorescent substrate uptake inhibition, VMAT2
- Assay type: cell-based
- condition set: 10 μM, transfected cells
property label: inhibition at 10 µM
Give the number first and the unit second.

Solved cases below.
CN[C@]1(c2ccccc2C)CCCCC1=O [Compound 38S] = -11.2%
O=C1CCCC[C@@]1(NCCO)c1ccccc1 [Compound 30R] = 16.3%
N[C@]1(c2ccccc2)CCCCC1=O [Compound 11S, (S)-2-amino-2-phenyl-cyclohexan-1-one] = -17.4%

Query: Any idea what its inhibition at 10 µM is? The compound is O=C1CCCCC1(c1ccccc1)N1CCCC1 (racemic)
Result: 60.4%

Query: Thanks! And O=C1CCCC[C@]1(NCCF)c1ccccc1 [Compound 86S] ?
Result: -5.5%

Query: Thanks! And COCCN[C@@]1(c2ccccc2)CCCCC1=O [Compound 29R] ?
Result: -31.9%

Query: Thanks! And CN[C@@]1(c2ccccc2)CCCCC1=O [Compound 14R] ?
Result: 6.2%

Query: Thanks! And CNC1(c2cccc(C)c2)CCCCC1=O (racemic) ?
Result: 16%

Query: Thanks! And Cc1ccccc1[C@]1(N)CCCCC1=O [Compound 114R, (R)-2-amino-2-(o-tolyl)cyclohexan-1-one] ?
Result: -14%
